System: K562
Assay: Cytotoxicity against human K562 cells assessed as reduction in cell viability after 72 hrs by CCK8 assay
Format: functional, cell-based
Conditions: Homo sapiens, K562, 72 h; read-out: IC50
Assay Readout: pIC50
Interpret pIC50 as the negative base-10 log of the concentration measured in mol/L.

Given the compound CC(/C=C/C(=O)NO)=C\[C@@H](C)C(=O)c1ccc(N(C)C)cc1 , write its reported pIC50.
6.39

***
Assign pIC50 to the following record: C=CCn1c(=O)/c(=C\c2cc(Br)ccc2F)[nH]c(=O)/c1=C\c1ccccc1OC
5.29

Quote pIC50 reported for C=CCn1c(=O)/c(=C\c2cccc(Br)c2)[nH]c(=O)/c1=C\c1ccccc1OC please.
5.62

Report measured pIC50; entry is COc1ccccc1/C=c1/[nH]c(=O)/c(=C\c2ccccc2OC)n(C)c1=O
5.66

Identify pIC50 associated with the compound C=CCn1c(=O)/c(=C\c2ccccc2F)[nH]c(=O)/c1=C\c1ccccc1OC
5.25

###

This listing pairs compounds with measured log10 IC50.
Assay: Cytotoxicity against human HuH7 cells assessed as reduction in cell viability after 72 hrs by CCK8 assay
Format: functional, cell-based, Huh-7
Conditions: Homo sapiens, Huh-7, 72 h; read-out: IC50
Values below are the log10 of the recorded IC50, with µM as the unit.

Solved cases below.
Report measured log10 IC50; entry is CC(/C=C/C(=O)NO)=C\[C@@H](C)C(=O)c1ccc(N(C)C)cc1 [TRICHOSTATIN]
-1.00

Give the reported log10 IC50 for this compound. C=CCn1c(=O)/c(=C\c2cccc(F)c2)[nH]c(=O)/c1=C\c1ccccc1OC
1.43

Quote log10 IC50 reported for COc1ccccc1/C=c1\c(=O)[nH]/c(=C/c2cccc(Cl)c2Cl)c(=O)n1C please.
-0.52

Name the recorded log10 IC50 of the item C=CCn1c(=O)/c(=C\c2cccc(Cl)c2)[nH]c(=O)/c1=C\c1ccccc1OC in your answer.
0.95

Give me measured log10 IC50, please, for this compound: C=CCn1c(=O)/c(=C\c2cccc(Br)c2)[nH]c(=O)/c1=C\c1ccccc1OC
0.36

Others:
Tell me its log10 IC50 given C=CCn1c(=O)/c(=C\c2ccccc2C(F)(F)F)[nH]c(=O)/c1=C\c1ccccc1OC as the entry.
0.98

Input COc1ccccc1/C=c1\c(=O)[nH]/c(=C/c2ccccc2Cl)c(=O)n1C , output reported log10 IC50.
-0.52

Given C=CCn1c(=O)/c(=C\c2ccccc2OC)[nH]c(=O)/c1=C\c1ccccc1OC , respond with its log10 IC50.
1.33

Identify log10 IC50 associated with the compound C=CCn1c(=O)/c(=C\c2cccc(Cl)c2Cl)[nH]c(=O)/c1=C\c1ccccc1OC
0.08

Indicate its recorded log10 IC50; the compound in question is C=CCn1c(=O)/c(=C\c2ccccc2F)[nH]c(=O)/c1=C\c1ccccc1OC
1.50

Determine from records and report log10 IC50 for CC(C)(C)c1[nH]cnc1/C=c1\[nH]c(=O)/c(=C/c2ccccc2)[nH]c1=O [PLINABULIN]
-1.51

Output log10 IC50 of C=CCn1c(=O)/c(=C\c2cc(F)ccc2C)[nH]c(=O)/c1=C\c1ccccc1OC
0.75

Specify log10 IC50 for C=CCn1c(=O)/c(=C\c2ccccc2Cl)[nH]c(=O)/c1=C\c1ccccc1OC and stop.
0.81

Output log10 IC50 of C=CCn1c(=O)/c(=C\c2cccc(C)c2)[nH]c(=O)/c1=C\c1ccccc1OC
1.33

###

Test system: K562
Assay: Cytotoxicity against human K562 cells assessed as reduction in cell viability after 72 hrs by CCK8 assay
Assay type: functional, cell-based
Conditions: Homo sapiens, K562, 72 h; read-out: IC50
Catalogue of molecules with associated IC50
Units required after the number.

Some solved entries appear below for comparison.
# return IC50 for C=CCn1c(=O)/c(=C\c2ccccc2OC)[nH]c(=O)/c1=C\c1ccccc1OC , test system: K562
7400 nM

State IC50 on K562. Entry: C=CCn1c(=O)/c(=C\c2ccccc2C(F)(F)F)[nH]c(=O)/c1=C\c1ccccc1OC
2700 nM

Lab note: K562 assay, enter IC50 for C=CCn1c(=O)/c(=C\c2cccc(Cl)c2)[nH]c(=O)/c1=C\c1ccccc1OC here
2700 nM

Fill: IC50 (K562) for this molecule CC(C)(C)c1[nH]cnc1/C=c1\[nH]c(=O)/c(=C/c2ccccc2)[nH]c1=O [PLINABULIN]
8 nM

Provide measured IC50 on K562 for C=CCn1c(=O)/c(=C\c2cc(F)ccc2C)[nH]c(=O)/c1=C\c1ccccc1OC please.
1800 nM

Recall the reported IC50 of C=CCn1c(=O)/c(=C\c2cccc(Cl)c2Cl)[nH]c(=O)/c1=C\c1ccccc1OC on K562 and write it down.
900 nM

Here is the next item to consider.
Under K562: report IC50 of C=CCn1c(=O)/c(=C\c2ccccc2Cl)[nH]c(=O)/c1=C\c1ccccc1OC .
2500 nM

###

Test system: U-937
Test: Cytotoxicity against human U937 cells assessed as reduction in cell viability after 72 hrs by CCK8 assay
Format: functional, cell-based
Conditions: Homo sapiens, U-937, 72 h; read-out: IC50
Doc: threshold 1 µM (exclusive). Items with IC50 beneath it return True; others return False.

Bench note: check whether C=CCn1c(=O)/c(=C\c2cccc(Cl)c2Cl)[nH]c(=O)/c1=C\c1ccccc1OC shows IC50 below 1 µM
True

Consider C=CCn1c(=O)/c(=C\c2ccccc2Cl)[nH]c(=O)/c1=C\c1ccccc1OC . Does its IC50 lie strictly below 1 µM?
True

Dear colleague, could you confirm whether IC50 of C=CCn1c(=O)/c(=C\c2cccc(C)c2)[nH]c(=O)/c1=C\c1ccccc1OC falls below 1 µM? Thanks.
False

# TODO verify IC50 < 1 µM strictly for this compound: C=CCn1c(=O)/c(=C\c2cc(Br)ccc2F)[nH]c(=O)/c1=C\c1ccccc1OC
False

Quick check: does C=CCn1c(=O)/c(=C\c2ccccc2C(F)(F)F)[nH]c(=O)/c1=C\c1ccccc1OC have IC50 under 1 µM?
False

***
Lab note: confirm whether the reported IC50 for this compound is below 1 µM, equality not counting. compound: C=CCn1c(=O)/c(=C\c2cccc(F)c2)[nH]c(=O)/c1=C\c1ccccc1OC
False

Determine if COc1ccccc1/C=c1/[nH]c(=O)/c(=C\c2ccccc2OC)n(C)c1=O shows IC50 strictly lower than 1 µM.
False

# strict comparison: is reported IC50 < 1 µM? input = COc1ccccc1/C=c1\c(=O)[nH]/c(=C/c2cccc(Cl)c2Cl)c(=O)n1C
True

Could you please tell me whether IC50 recorded for C=CCn1c(=O)/c(=C\c2ccccc2F)[nH]c(=O)/c1=C\c1ccccc1OC is less than 1 µM?
False

Item CC(/C=C/C(=O)NO)=C\[C@@H](C)C(=O)c1ccc(N(C)C)cc1 : IC50 beneath 1 µM, strictly?
True

Lab note: IC50 threshold 1 µM. Does this compound come in strictly under it? C=CCn1c(=O)/c(=C\c2cccc(Br)c2)[nH]c(=O)/c1=C\c1ccccc1OC
False

Input C=CCn1c(=O)/c(=C\c2ccccc2OC)[nH]c(=O)/c1=C\c1ccccc1OC ; condition: IC50 strictly below 1 µM. Does it hold?
False

Determine whether this compound shows IC50 lower than 1 µM (ties excluded): CC(C)(C)c1[nH]cnc1/C=c1\[nH]c(=O)/c(=C/c2ccccc2)[nH]c1=O
True

Here's an entry: C=CCn1c(=O)/c(=C\c2cccc(Cl)c2)[nH]c(=O)/c1=C\c1ccccc1OC . Is its IC50 below 1 µM?
False

Dear reviewer, please state whether COc1ccccc1/C=c1\c(=O)[nH]/c(=C/c2ccccc2Cl)c(=O)n1C has IC50 strictly beneath 1 µM.
True

###

Each entry below carries its reported pIC50.
System: MCF7
Test: Cytotoxicity against human MCF7 cells assessed as reduction in cell viability after 72 hrs by CCK8 assay
Format: functional, cell-based
Settings: Homo sapiens, MCF7, 72 h; read-out: IC50
Conceptually, pIC50 converts a concentration in mol/L into minus its log10.

State its pIC50 for this molecule: C=CCn1c(=O)/c(=C\c2cccc(C)c2)[nH]c(=O)/c1=C\c1ccccc1OC
4.68

Quickly give me recorded pIC50 for C=CCn1c(=O)/c(=C\c2cccc(F)c2)[nH]c(=O)/c1=C\c1ccccc1OC
4.86

Please supply the value of reported pIC50 for the item C=CCn1c(=O)/c(=C\c2cc(F)ccc2C)[nH]c(=O)/c1=C\c1ccccc1OC
5.51

In one line, give reported pIC50 of the entry C=CCn1c(=O)/c(=C\c2ccccc2Cl)[nH]c(=O)/c1=C\c1ccccc1OC .
5.33

// fetch pIC50 given entry C=CCn1c(=O)/c(=C\c2cc(Br)ccc2F)[nH]c(=O)/c1=C\c1ccccc1OC
4.55

Please turn your attention to the following entry.
Note pIC50 for the molecule shown: C=CCn1c(=O)/c(=C\c2ccccc2OC)[nH]c(=O)/c1=C\c1ccccc1OC
4.39
